Cited source for all entries: the NIST ThermoML archive (doi:10.1016/j.jct.2017.08.004)

Each entry below lists one item and its recorded molar heat capacity at constant pressure value.
experiment: molar heat capacity at constant pressure; settings: 228.15 K; 101.33 kPa; Crystal; Small sample (50 mg) DSC

| COMPOUND | UNIT TEXT | molar heat capacity at constant pressure |
| --- | --- | --- |
| OC[C@@H](O)[C@@H](O)CO [meso-1,2,3,4-butanetetrol] | J/K/mol | 127.86 |
| O[C@H]1[C@H](O)[C@@H](O)[C@H](O)[C@@H](O)[C@H]1O [cis-1,2,3,5-trans-4,6-cyclohexanehexol] | J/K/mol | 164.76 |
| OC[C@@H](O)[C@@H](O)[C@H](O)[C@H](O)CO [D-mannitol] | J/K/mol | 178.66 |
| OC[C@@H](O)[C@H](O)[C@@H](O)CO [xylitol] | J/K/mol | 160.16 |
| OC[C@@H](O)C(O)[C@H](O)CO [D-arabitol] | J/K/mol | 153.85 |
| OC[C@H](O)C(O)[C@@H](O)CO [L-(-)-arabitol] | J/K/mol | 158.58 |
